Listing of recorded IC50 by entry.
- SYSTEM TESTED: Cytochrome P450 3A4 (Homo sapiens, UniProt P08684)
- Sequence (P08684 whole entry): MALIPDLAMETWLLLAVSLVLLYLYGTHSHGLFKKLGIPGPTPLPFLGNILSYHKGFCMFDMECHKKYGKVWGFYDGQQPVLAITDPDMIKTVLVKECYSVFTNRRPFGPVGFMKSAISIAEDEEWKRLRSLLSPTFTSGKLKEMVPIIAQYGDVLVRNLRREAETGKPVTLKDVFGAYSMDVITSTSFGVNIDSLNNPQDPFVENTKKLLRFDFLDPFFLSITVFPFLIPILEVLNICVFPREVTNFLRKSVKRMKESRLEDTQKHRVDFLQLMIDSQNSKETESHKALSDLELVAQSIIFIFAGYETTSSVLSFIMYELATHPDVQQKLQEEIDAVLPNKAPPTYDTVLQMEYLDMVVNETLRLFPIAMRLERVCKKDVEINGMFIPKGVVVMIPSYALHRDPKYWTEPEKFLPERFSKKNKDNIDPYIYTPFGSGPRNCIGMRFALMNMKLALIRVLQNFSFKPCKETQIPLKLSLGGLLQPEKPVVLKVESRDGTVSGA
- TEST NAME: Inhibition of CYP3A4 in human liver using luciferin-IPA as substrate microsome preincubated with compound for 10 mins followed by NADPH addition and measured after 5 mins
- Format: ADME, microsomes

# annotated cases, reported IC50 shown
>>> observed_value("COc1ccc(CN2CCC(c3ccc(NC(=O)c4cc(OC)c(OC)cc4NC(=O)c4cnc5ccccc5c4)cc3)CC2)cc1OC")
"> 9000 nM"
>>> observed_value("COc1ccc(CN2CCC(c3ccc(NC(=O)c4cc(OC)c(OC)cc4NC(=O)c4cc(=O)c5ccccc5o4)cc3)CC2)cc1OC")
"> 9000 nM"
>>> observed_value("COc1cc(NC(=O)c2cnc3ccccc3c2)c(C(=O)Nc2ccc(C3CCN(Cc4cccc(-n5ccnc5)c4)CC3)cc2)cc1OC")
"334 nM"
>>> observed_value("COc1cc(NC(=O)c2cnc3ccccc3c2)c(C(=O)Nc2ccc(N3CCN(Cc4cccc(-n5ccnc5)c4)CC3)cc2)cc1OC")
"267 nM"
>>> observed_value("COc1ccc(CN2CCN(c3ccc(NC(=O)c4cc(OC)c(OC)cc4NC(=O)c4cc(=O)c5ccccc5o4)cc3)CC2)cc1OC")
"> 9000 nM"
>>> observed_value("COc1ccc(CN2CCN(c3ccc(NC(=O)c4ccccc4NC(=O)c4cc(=O)c5ccccc5o4)cc3)CC2)cc1OC")
"> 9000 nM"

Problem: Consider the compound `COc1cc(NC(=O)c2cc(=O)c3ccccc3o2)c(C(=O)Nc2ccc(N3CCN(Cc4cccc(-n5cncn5)c4)CC3)cc2)cc1OC` and give its recorded IC50.
Solution: 372 nM

Problem: Consider the compound `COc1ccc(CN2CCN(c3ccc(NC(=O)c4cc(OC)c(OC)cc4NC(=O)c4cnc5ccccc5c4)cc3)CC2)cc1OC` and give its recorded IC50.
Solution: > 9000 nM

====

- SYSTEM TESTED: ATP-dependent translocase ABCB1 (Homo sapiens)
- Sequence (P08183 whole entry): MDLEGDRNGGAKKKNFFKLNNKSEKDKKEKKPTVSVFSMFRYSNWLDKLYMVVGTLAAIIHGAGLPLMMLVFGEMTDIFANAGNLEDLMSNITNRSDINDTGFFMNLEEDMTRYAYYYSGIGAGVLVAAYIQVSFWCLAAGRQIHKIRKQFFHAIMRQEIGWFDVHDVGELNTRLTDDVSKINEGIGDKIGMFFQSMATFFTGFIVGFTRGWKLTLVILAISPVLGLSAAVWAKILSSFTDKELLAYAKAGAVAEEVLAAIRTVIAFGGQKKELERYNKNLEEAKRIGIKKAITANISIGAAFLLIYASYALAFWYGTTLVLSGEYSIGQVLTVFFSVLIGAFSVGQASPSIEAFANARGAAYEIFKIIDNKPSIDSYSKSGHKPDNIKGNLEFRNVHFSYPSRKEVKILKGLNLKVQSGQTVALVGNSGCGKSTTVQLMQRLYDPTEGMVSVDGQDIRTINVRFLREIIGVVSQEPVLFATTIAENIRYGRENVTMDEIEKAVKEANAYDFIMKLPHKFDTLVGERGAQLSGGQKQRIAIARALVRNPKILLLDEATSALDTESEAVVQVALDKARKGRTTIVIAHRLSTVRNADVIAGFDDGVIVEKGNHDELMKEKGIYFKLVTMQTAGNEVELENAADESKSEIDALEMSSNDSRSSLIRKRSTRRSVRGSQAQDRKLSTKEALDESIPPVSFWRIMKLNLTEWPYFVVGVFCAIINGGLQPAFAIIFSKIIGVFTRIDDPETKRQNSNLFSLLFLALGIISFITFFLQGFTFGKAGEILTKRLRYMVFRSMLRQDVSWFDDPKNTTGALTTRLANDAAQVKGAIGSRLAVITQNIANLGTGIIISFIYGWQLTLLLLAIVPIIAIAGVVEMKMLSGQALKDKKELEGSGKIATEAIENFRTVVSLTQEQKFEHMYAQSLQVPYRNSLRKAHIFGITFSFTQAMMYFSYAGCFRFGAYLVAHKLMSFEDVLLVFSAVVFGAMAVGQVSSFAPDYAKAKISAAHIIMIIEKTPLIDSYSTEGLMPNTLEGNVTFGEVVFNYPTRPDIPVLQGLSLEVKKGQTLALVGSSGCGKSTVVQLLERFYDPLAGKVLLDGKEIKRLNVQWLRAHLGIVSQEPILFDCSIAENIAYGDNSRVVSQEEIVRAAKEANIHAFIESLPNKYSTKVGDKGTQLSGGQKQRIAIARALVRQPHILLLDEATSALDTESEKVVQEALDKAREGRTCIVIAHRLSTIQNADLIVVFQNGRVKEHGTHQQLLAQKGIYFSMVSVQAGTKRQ
- TEST NAME: Inhibition of P-gp in human MES-SA/Dx5 cells
Grouping by measured EC50 is done with the following cut points: LOW = under 40 nM, MID = from 40 nM up to 100 nM, HIGH = 100 nM and over

Problem: # bin lookup: classify `COc1cc(NC(=O)c2cc(=O)c3ccccc3o2)c(C(=O)Nc2ccc(N3CCN(Cc4cccc(-n5cncn5)c4)CC3)cc2)cc1OC` by its EC50
Solution: HIGH

Problem: # bin lookup: classify `COc1ccc(CN2CCN(c3ccc(NC(=O)c4cc(OC)c(OC)cc4NC(=O)c4cnc5ccccc5c4)cc3)CC2)cc1OC` by its EC50
Solution: LOW

====

- SYSTEM TESTED: ATP-dependent translocase ABCB1 (Homo sapiens)
- TEST NAME: Inhibition of P-gp in human MES-SA/Dx5 cells
Listing of recorded EC50 by entry.
State the answer as a number, implicitly in µM.

# annotated cases, reported EC50 shown
>>> observed_value("COc1cc(NC(=O)c2cnc3ccccc3c2)c(C(=O)Nc2ccc(C3CCN(Cc4ccc5c(c4)OCO5)CC3)cc2)cc1OC")
0.039
>>> observed_value("COc1cc(NC(=O)c2cnc3ccccc3c2)c(C(=O)Nc2ccc(C3CCN(Cc4cccc(-n5ccnc5)c4)CC3)cc2)cc1OC")
0.045
>>> observed_value("COc1cc(NC(=O)c2cnc3ccccc3c2)c(C(=O)Nc2ccc(C3CCN(Cc4cccc(-c5ccncc5)c4)CC3)cc2)cc1OC")
0.188
>>> observed_value("COc1cc(NC(=O)c2cnc3ccccc3c2)c(C(=O)Nc2ccc(C3CCN(Cc4cccc(-c5cccnc5)c4)CC3)cc2)cc1OC")
0.108

Problem: Consider the compound `COc1cc(NC(=O)c2cnc3ccccc3c2)c(C(=O)Nc2ccc(N3CCN(Cc4ccc5c(cnn5C)c4)CC3)cc2)cc1OC` and give its recorded EC50.
Solution: 0.019

Problem: Consider the compound `COc1ccc(CN2CCN(c3ccc(NC(=O)c4cc(OC)c(OC)cc4NC(=O)c4cc(=O)c5ccccc5o4)cc3)CC2)cc1OC` and give its recorded EC50.
Solution: 0.021

Problem: Consider the compound `O=C(Nc1ccccc1C(=O)Nc1ccc(N2CCN(Cc3cccc(-c4cccnc4)c3)CC2)cc1)c1cc(=O)c2ccccc2o1` and give its recorded EC50.
Solution: 0.512

Problem: Consider the compound `COc1cc(NC(=O)c2cnc3ccccc3c2)c(C(=O)Nc2ccc(N3CCN(Cc4cccc(-c5ccncc5)c4)CC3)cc2)cc1OC` and give its recorded EC50.
Solution: 0.098

Problem: Consider the compound `COc1ccc(CN2CCC(c3ccc(NC(=O)c4cc(OC)c(OC)cc4NC(=O)c4cnc5ccccc5c4)cc3)CC2)cc1OC` and give its recorded EC50.
Solution: 0.043
